test system: Mus musculus; assay: Anticonvulsant activity in Swiss Albino mouse at 300 mg/kg, ip after 0.5 hr by scPTZ test; assay type: functional, organism-based; design: dose 300 mg/kg
Active and inactive are the calls of the source. The calls are words filed in the database; no cut-off is given here.
Labels: active, inactive

INSERT INTO assay_data (compound, assigned_label) VALUES
  ('O=C(O)CCCNC(=O)NN=C1CCCC1', 'inactive'),
  ('O=C(O)CCCNC(=O)N/N=C/c1ccccc1O', 'inactive'),
  ('O=C(O)CCCNC(=O)NN=C(Cc1ccccc1)Cc1ccccc1', 'inactive'),
  ('CCC1(C)CC(=O)NC1=O (configuration not stated)', 'active'),
  ('O=C(O)CCCNC(=O)N/N=C/c1ccc([N+](=O)[O-])cc1', 'inactive'),
  ('C/C(=N\NC(=O)NCCCC(=O)O)c1ccccc1', 'inactive'),
  ('C/C(=N\NC(=O)NCCCC(=O)O)c1cccc(N)c1', 'inactive'),
  ('O=C(O)CCCNC(=O)NN=C(c1ccccc1)c1ccccc1', 'inactive'),
  ('CN(C)c1ccc(/C=N/NC(=O)NCCCC(=O)O)cc1', 'inactive'),
  ('O=C(O)CCCNC(=O)N/N=C/c1cccc([N+](=O)[O-])c1', 'active'),
  ('C/C(=N\NC(=O)NCCCC(=O)O)c1ccc([N+](=O)[O-])cc1', 'inactive'),
  ('O=C(O)CCCNC(=O)NN=C1CCCCC1', 'active');

----------
system: Rattus norvegicus; experiment: Anti-cold allodynia effect in Sprague-Dawley rat SNL model assessed as duration of paw withdrawal 100 mg/kg, ip after 2.5 hrs; type: functional; conditions: route intraperitoneal
Measure: Activity

INSERT INTO assay_data (compound, result) VALUES
  ('O=C(O)CCCNC(=O)N/N=C1\C(=O)Nc2ccccc21', '41.2 s'),
  ('NCC1(CC(=O)O)CCCCC1', '6.9 s'),
  ('O=C(O)CCCNC(=O)NN=C1CCCC1', '1.9 s'),
  ('O=C(O)CCCNC(=O)N/N=C/c1ccccc1O', '28.5 s'),
  ('Nc1nnc(-c2cccc(Cl)c2Cl)c(N)n1', '18.4 s'),
  ('C/C(=N\NC(=O)NCCCC(=O)O)c1ccccc1', '4.8 s'),
  ('NC(=O)N1c2ccccc2C=Cc2ccccc21 [CARBAMAZEPINE]', '20.6 s'),
  ('O=C(O)CCCNC(=O)N/N=C(\c1ccccc1)c1ccc(Br)cc1', '10.2 s'),
  ('C/C(=N\NC(=O)NCCCC(=O)O)c1ccc(C)cc1', '14.3 s'),
  ('C/C(=N\NC(=O)NCCCC(=O)O)c1cccc(N)c1', '15.2 s');

----------
system: Rattus norvegicus; experiment: Antihyperalgesic effects in Sprague-Dawley rat CCI model assessed as duration of paw withdrawal at 100 mg/kg, ip after 1 hr; format: functional; conditions: route intraperitoneal
Measure: Activity (s)

INSERT INTO measurements (cpd_smiles, quantitative_readout) VALUES
  ('O=C(O)CCCNC(=O)N/N=C1\C(=O)Nc2ccccc21', 4.9),
  ('NCC1(CC(=O)O)CCCCC1', 12.3),
  ('C/C(=N\NC(=O)NCCCC(=O)O)c1ccc(C)cc1', 13.2),
  ('O=C(O)CCCNC(=O)NN=C1CCCCC1', 24.8),
  ('O=C(O)CCCNC(=O)NN=C1CCCC1', 30.7),
  ('O=C(O)CCCNC(=O)N/N=C/c1ccc(Cl)cc1', 7.8);

Sourced from ChEMBL document CHEMBL1139875
